system: SNB-19 CNS; test: NCI tumour cell line growth inhibition, 48 h
Where a SMILES comes first, the peptide text is derived from it. [ ]: non-standard residue; d: D form. The star is where a group is joined. ξ: configuration not given here. dThr(3ξ) = CC(O)[C@@H](N)C(=O)O; dNMeL = CN[C@H](CC(C)C)C(=O)O; OBn = c1ccc(CO*)cc1; ξLac = CC(O)C(=O)O
MEASURED_QUANTITY: TGI

Look over these answered cases.
INSERT INTO measurements (compound, experimental_system, value_reported) VALUES
  ('CC(=O)OC(C)[C@@H](NC(=O)[C@@H](CC(C)C)N(C)C(=O)[C@@H]1CCCN1C(=O)C(C)O)C(=O)OCc1ccccc1 (stereo not given in full) (H-[ξLac]P[dNMeL][dThr(3ξ)](Ac)-OBn)', 'SNB-19 CNS', '> 100 µM'),
  ('COC(=O)C1=CN=C(C(=O)OC)NN1', 'SNB-19 CNS', '> 100 µM'),
  ('c1cc(OCCN2CCCCCC2)ccc1CNc1ccc2nc(CCC3CCCCC3)[nH]c2c1', 'SNB-19 CNS', '11.4 µM'),
  ('COC(=O)C(=O)c1c2ccccc2n2ccc3c4ccccc4[nH]c3c12', 'SNB-19 CNS', '> 10 µM');

Problem: Bench note: what TGI did COC1=NC(NC2OCC(O)C(O)C2O)=C(NC(C)=O)CN1C (stereo not given) show?
Solution: > 100 µM

* * *

system: UACC-62 melanoma
Reply using exactly one outcome from 1.0 (active), 0.0 (inactive)

Solved cases (5 shown):
INSERT INTO assay_data (compound, experimental_system, assigned_category) VALUES
  ('Clc1cc(Cl)c(Cl)c(-c2nc(-c3cccnc3)cs2)c1', 'UACC-62 melanoma', 0.0),
  ('O=C(O)C1NCCc2c1[nH]c1ccccc21 (stereo not given)', 'UACC-62 melanoma', 0.0),
  ('COc1ccc(N(CC(=O)NCCC[Te]c2ccccc2)C(=O)CCSC2=C(C)C(=O)c3ccccc3C2=O)cc1', 'UACC-62 melanoma', 0.0),
  ('CC1(C)CC(=O)C2=C(C1)NC(SSC1=C(C#N)C(c3ccc(F)cc3)C3=C(CC(C)(C)CC3=O)N1)=C(C#N)C2c1ccc(F)cc1 (stereo not given)', 'UACC-62 melanoma', 0.0),
  ('CCOC(=O)c1c(-c2ccccc2)[n+](=O)c2ccc(Cl)cc2n1[O-]', 'UACC-62 melanoma', 0.0);

Problem: Which outcome was entered for the compound CCCc1cc2cc(-n3nc(C)c4c3CC(C)(C)CC4=O)cc(NC3CCC(O)CC3)c2c(=O)[nH]1 (stereo not given) in this test?
Solution: 1.0

Problem: What did the test return for CCOC(=O)c1c(C)nc2ccc(Cl)cc2c1-c1ccccc1 ?
Solution: 0.0

Problem: Lab log entry: C/C(CC(=O)NNc1ccc([N+](=O)[O-])cc1)=N\Nc1ccc([N+](=O)[O-])cc1 — outcome as called in the assay?
Solution: 0.0

Problem: Check the results log: what was the call for CNNCc1ccc(C(=O)NC(C)C)cc1 ?
Solution: 0.0

Problem: Name the outcome recorded for CN(C)C(=O)/N=c1\ss/c(=N\C(=S)N(C)C)n1-c1ccccc1 in the assay.
Solution: 0.0

Problem: Could you please tell me the result logged for CCOC(=O)c1ccc(N(CCOS(C)(=O)=O)CCOS(C)(=O)=O)cc1C in this assay?
Solution: 0.0

Problem: What was the test verdict on O=C1/C(=C\C(Cl)=C/c2ccc([N+](=O)[O-])cc2)SC(=S)N1CCc1ccc(O)cc1 ?
Solution: 0.0

Problem: Each compound tested received a call. Report the one for C=C1C(=O)O[C@H]2[C@H]1CC/C(Cn1cc(Cn3ccc4ccccc43)nn1)=C\CC[C@@]1(C)O[C@@H]21 .
Solution: 0.0

Problem: Recorded call for Cc1n[nH]c(=S)n1/N=C/c1ccc(F)c(Oc2ccccc2)c1 ?
Solution: 0.0

Problem: What call does the record list for CC(=O)O[C@H]1C(=O)O[C@@H]2C[C@H]3C(C)=CC(=O)[C@@H](O)[C@]3(C)[C@H]3[C@@]4(O)OC[C@]32[C@@H]1[C@@H](C)[C@H]4O ?
Solution: 1.0
